Tested on: NOMO1
Test: AUC of viability dose-response curve (% viability x log10 dose units); higher = less sensitive
Details: RPMI 5 mM glucose + 10% FBS; 48 h

# Compound, AUC of viability dose-response curve
measured = [
    ("Cn1ccc2cc3c(cc21)CCN3C(=O)Nc1cccnc1", 451),
    ("CN(C)CCCN\\C1=C\\2C(=O)N(C)C(=O)\\N=C2N(C)C3=C1C=CC=C3", 446),
    ("O=C(Nc1cccc(Br)c1)c1cccc([S+](=O)([O-])N2CCCCCC2)c1", 460),
    ("N#C/C(=C1/Nc2ccccc2S1)c1ccnc(OCc2ccc(CN3CCOCC3)cc2)n1", 412),
    ("CC(C)[N+]1(C)C2CCC1CC(OC(=O)C(CO)c1ccccc1)C2.O.[Br-] (centres undefined)", 457),
    ("N#CC[C@H](C1CCCC1)n1cc(-c2ncnc3[nH]ccc23)cn1", 374),
    ("COc1ccc([S+](=O)([O-])Nc2cccnc2Nc2ccc(O)cc2)cc1", 379),
    ("CCCCc1nc2cc(/C=C/C(=O)NO)ccc2n1CCN(CC)CC", 326),
    ("C[N]1C=C(C=N1)C2=CC=C3N=CC\\4=C(N(C(=O)\\C=C4)C5=CC6=C(CCN6C(=O)C=C)C=C5)C3=C2", 396),
    ("CN(C)CCc1c[nH]c2ccc(C[S+](=O)([O-])N3CCCC3)cc12", 468),
    ("CN1C2CCC1CC(OC(=O)C(CO)c1ccccc1)C2 (centres undefined)", 463),
    ("CC/1=C(\\CCN2CCC(CC2)C3=NOC4=C3C=CC(=C4)F)C(=O)N/5CCCCC5=N1", 477),
    ("N=C(N)NC(=N)N1CCOCC1", 461),
    ("COc1cc(OC)c(C(=O)CCCN2CCCC2)c(OC)c1", 440),
    ("Cn1cnc([N+](=O)[O-])c1Sc1ncnc2nc[nH]c12", 342),
    ("N=C(N)Nc1ccc(C(=O)Oc2ccc3cc(C(=N)N)ccc3c2)cc1", 406),
    ("CC(C)Cn1cnc2c(N)nc3ccccc3c21", 466),
    ("C[N+]1(C)[C@@H]2CC(OC(=O)C(O)(c3cccs3)c3cccs3)C[C@H]1[C@@H]1O[C@@H]12 (some centres undefined)", 466),
    ("C1CN\\2C[C@@H](\\N=C2S1)C3=CC=CC=C3", 442),
    ("O=[S+]([O-])(NCCNC/C=C/c1ccc(Br)cc1)c1cccc2cnccc12", 446),
    ("NC(=O)c1noc([C@H](CCCC2CCCCC2)CC(=O)NO)n1", 424),
    ("CC(C)(Sc1ccc(CCN(CCCCC2CCCCC2)C(=O)NC2CCCCC2)cc1)C(=O)O", 467),
    ("CCOC(=O)[C@H]1O[C@@H]1C(=O)N[C@@H](CC(C)C)C(=O)NCCC(C)C", 445),
    ("COc1cc2ncn(-c3cc(OCc4ccccc4C(F)(F)F)c(C(N)=O)s3)c2cc1OC", 375),
    ("CSCC[C@H](NC(=O)[C@H](Cc1c[nH]c2ccccc12)NC(=O)CCNC(=O)OC(C)(C)C)C(=O)N[C@@H](CC(=O)O)C(=O)N[C@@H](Cc1ccccc1)C(N)=O", 453),
    ("NC(CO)C(=O)NNCc1ccc(O)c(O)c1O (centres undefined)", 431),
    ("Nc1nc(N)c(N=O)c(OCC2CCCCC2)n1", 379),
    ("N#Cc1ccc(NC(=O)Nc2ccccc2Br)c2nn[nH]c12", 463),
    ("Oc1ccc2ccccc2c1SSc1c(O)ccc2ccccc12", 469),
]
